Tested on: P. falciparum 3D7 in RBCs, SYBR Green DNA fluorescence
Experiment: growth inhibition of P. falciparum 3D7, dose response, 3D7 strain, red blood cells, SYBR Green, cherry-picked (AID 652047)
quantity: AC35

Example entries and their recorded answers appear below.
Cn1nc(C(F)(F)F)c(C#N)c1N1CCN(c2ccc(F)cc2)CC1: 41.9 µM
Cc1ccccc1Oc1nc(-c2ccccn2)nc2ccccc12: 2.17 µM
CCN(CC)C(=O)CSc1ncnc2sc(-c3ccccc3)cc12: 35.6 µM

Q. What is its AC35 for P. falciparum 3D7 in RBCs, SYBR Green DNA fluorescence? Entry: "Nc1cc2nc3ccccc3oc-2cc1=O"
A. 2.14 µM

Q. Find the measured AC35: item "O=C(c1ccccc1)c1coc2c1C(=O)c1ccccc1C2=O" , target or system P. falciparum 3D7 in RBCs, SYBR Green DNA fluorescence.
A. 3.82 µM

Q. What is its AC35 for P. falciparum 3D7 in RBCs, SYBR Green DNA fluorescence? Entry: "Oc1ccc(Br)cc1/C=N/Nc1ccccn1"
A. 2.68 µM

Q. Identify the measured AC35 of "O=C(Nc1ccc(Br)c(C(F)(F)F)c1)c1ccccc1" for P. falciparum 3D7 in RBCs, SYBR Green DNA fluorescence.
A. 20 µM

Q. Record lookup: for P. falciparum 3D7 in RBCs, SYBR Green DNA fluorescence, what AC35 belongs to "O=C1OCC(CO)(CO)N=C1NNc1ccc(Cl)c(Cl)c1" ?
A. 19.1 µM

====

# AC35 annotations
Test system: P. falciparum 3D7 in RBCs, SYBR Green DNA fluorescence
Test: growth inhibition of P. falciparum 3D7, dose response, 3D7 strain, red blood cells, SYBR Green, cherry-picked (AID 652047)

O=c1c2ccccc2nc(-c2cccc(Cl)c2)n1O: 25.4 µM

Q. Item under review: "OCCN(CCO)c1cc2c3ccccc3ccc2c2ccccc12" . Reported AC35?
A. 1.69 µM

Q. Which AC35 reading was recorded for the compound "O=C1c2ccccc2-n2c1nc1ccccc1c2=O" ?
A. 0.181 µM

Q. Please look up its AC35: "CCOC(=O)N1C(=O)C2(CCCCC2)N(c2ccccc2Cl)C1=S"
A. 12.8 µM

Q. What AC35 value was documented for this compound, CC(NC(=S)NC1CCC(C(C)(C)C)CC1)c1ccccc1 (stereo unspecified) ?
A. 10.2 µM

Q. Need AC35 of "CCN(CC)c1ccc(/C=N/NC(=O)c2c(Cl)cnn2C)c(O)c1" , thanks.
A. 3.27 µM

====

Listed below: AC35 values for each entry.
System: P. falciparum 3D7 in RBCs, SYBR Green DNA fluorescence
Experiment: growth inhibition of P. falciparum 3D7, dose response, 3D7 strain, red blood cells, SYBR Green, cherry-picked (AID 652047)

CC1(C(=O)OCC(=O)Nc2ccc3ccccc3c2)CC1(Cl)Cl (stereo not given): 42.6 µM
COc1cccc(/C=N/Nc2ncnc(Cl)c2N)c1O: 0.896 µM

From here, focus on the item given below.
Q. Can you look up AC35 on P. falciparum 3D7 in RBCs, SYBR Green DNA fluorescence for "Cn1ccc(=Nc2ccc(NC(=O)c3ccc(N=c4ccn(C)c5ccc([N+](=O)[O-])cc45)cc3)cc2)cc1" ?
A. 0.0417 µM

====

Test system: P. falciparum 3D7 in RBCs, SYBR Green DNA fluorescence
Assay: growth inhibition of P. falciparum 3D7, dose response, 3D7 strain, red blood cells, SYBR Green, cherry-picked (AID 652047)
Let's look at some compounds and their measured AC35.

O=C(/C(=N/N=C/c1ccc(O)c(O)c1O)c1ccccc1)c1ccccc1: 4.96 µM
CCCCNC(=S)N/N=C1\CCCCc2ccccc21: 18.3 µM
O=C1c2cccc(Cl)c2C(=O)c2c1cccc2N1CCCC1: 22.7 µM

Read the next record carefully.
Q. Fill in: AC35 of "O=C(Oc1c(Cl)cc(Cl)c2cccnc12)c1cccs1" is ___
A. 17.7 µM

====

Experiment: growth inhibition of P. falciparum 3D7, dose response, 3D7 strain, red blood cells, SYBR Green, cherry-picked (AID 652047);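 for activity change, negative = inhibition: 0% = untreated neutral control wells and -100% = mefloquine positive control wells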
Conditions: P. falciparum 3D7 in RBCs, SYBR Green DNA fluorescence; at 50 µM (top of the series)
# activity change, negative = inhibition per record follows
Report as a plain number; the unit % is understood.

Below: 5 compounds and their reported activity change, negative = inhibition.
Oc1c(Br)cc(-c2ccccc2)cc1Br: -1.67
FC(F)(F)c1nc(SCc2ccc(Cl)cc2Cl)n[nH]1: 8.98
COc1ccc(N(C(=O)c2ccncc2)S(=O)(=O)c2ccccc2)cc1: -18.5
CCOc1ccc(N/N=C(/C#N)C(N)=O)cc1: -29.8
CCCOc1ccc2ccccc2c1/C=C1\SC(=O)NC1=O: -22.2

Let us examine a further case.
Q. For the compound shown here, "COc1cccc(C(C)=C2SC(=S)NC2=O)c1" , give the reported activity change, negative = inhibition.
A. -18.5

====

System: P. falciparum 3D7 in RBCs, SYBR Green DNA fluorescence
Assay: growth inhibition of P. falciparum 3D7, dose response, 3D7 strain, red blood cells, SYBR Green, cherry-picked (AID 652047)
quantity: AC35

Sample answers from the record:
Cc1ccc(-n2nnnc2SCC(=O)N2CCc3ccccc3C2)c(C)c1: 30.7 µM
O=C(COc1ccc([N+](=O)[O-])cc1)Nc1nc(-c2ccccn2)cs1: 6.63 µM
Cc1ccc(O)c(-c2cc(-c3ccccc3C)[nH]n2)c1: 10.8 µM
CCCCCCC(Cl)(Cn1ccnc1)c1ccccc1 (stereo unspecified): 4.06 µM
O=S(=O)(c1ccc(Cl)cc1)N1CCC2(CC1)OCCN2S(=O)(=O)c1cccs1: 24.8 µM
Clc1nc(-c2ccccn2)nc2scc(-c3ccccc3)c12: 2.34 µM
Cc1ccc(NC2(c3nnnn3-c3c(C)cccc3C)CCCCC2)cc1: 15.7 µM
Cc1cccc(NC(=S)NC(C)CCc2ccccc2)c1 (stereo unspecified): 5.69 µM

Q. Look at this compound and give its reported AC35. "CCCCNc1c(-c2ccc(-c3ccc(OC)cc3)c(OC)c2)nc2ccccn12"
A. 5.67 µM

Q. Could you share which AC35 value was measured for CCC(C)c1ccc(NC(=S)NCCn2cc(Br)cn2)cc1 (stereo unspecified) ?
A. 13.9 µM

Q. Dear colleague, I am looking for the recorded AC35 of the following compound: "COc1ccc2[nH]c(=O)c(CN(Cc3cccnc3)C(=O)Nc3ccccc3)cc2c1"
A. 17.5 µM

====

System: P. falciparum 3D7 in RBCs, SYBR Green DNA fluorescence
Assay: growth inhibition of P. falciparum 3D7, dose response, 3D7 strain, red blood cells, SYBR Green, cherry-picked (AID 652047)
Item-by-item account of AC35

The following compounds have reported results that may help.
COc1cccc(/C=N/Nc2ncnc3scc(-c4ccccc4)c23)c1O: 1.91 µM
O=[N+]([O-])c1cc(C(F)(F)F)ccc1NCCc1c[nH]c2ccc(O)cc12: 28.3 µM
O=c1cc(CSc2ccc(Cl)cc2)nc(-c2ccccn2)[nH]1: 1.93 µM

Next:
Q. Checklist item: AC35 tested on P. falciparum 3D7 in RBCs, SYBR Green DNA fluorescence, entry "O=c1c2ccccc2nc(-c2ccc(-c3ccccc3)cc2)n1-c1ccncc1" , value?
A. 3.6 µM

====

Tested on: P. falciparum 3D7 in RBCs, SYBR Green DNA fluorescence
Assay: growth inhibition of P. falciparum 3D7, dose response, 3D7 strain, red blood cells, SYBR Green, cherry-picked (AID 652047)
quantity: AC35

Some solved entries appear below for comparison.
Cc1c(C2(O)CCCCC2)[nH]c2ccc(C(F)(F)F)cc12: 27.4 µM
Cc1[nH]n(-c2ccccc2)c(=O)c1/C=N/Nc1nncc(-c2ccccc2)n1: 1.2 µM
C=CCn1c(-c2cc(-c3ccc(C)cc3)nc3ccccc23)n[nH]c1=S: 15.5 µM
CCOC(=O)c1cnc(-n2nc(C)cc2C)nc1NC1CCCC1: 2.6 µM

Q. Field request: AC35 | item: "COc1ccccc1-c1sc2cc3c(cc2c1C#Cc1cncn1C)OCO3"
A. 2.48 µM

Q. # query: AC35 of entry "CCCCCCCc1ccc(-c2ccc(O)cc2)nc1"
A. 7.43 µM

Q. I'd like to know its AC35. The compound in question is "CCc1ccc(OCc2n[nH]c(=S)n2Cc2ccccc2)cc1"
A. 32 µM

Q. Quick one: AC35 of C=C1C(=O)C23CCC4C(C)(C(=O)OC)CCCC4(C)C2CCC1(O)C3 (stereo not given) ?
A. 1.99 µM

Q. What AC35 value was documented for this compound, "O=C(CSc1ccc(-c2ccccn2)nn1)NCc1ccc(F)cc1" ?
A. 28.7 µM

Q. Reported AC35, compound "O=C(NC(=S)N(CCc1ccccc1)CCc1ccccc1)c1ccco1" : ____
A. 12 µM

Q. Fill in: AC35 of "O=Cc1cc(N=Nc2ccccc2Cl)ccc1O" is ___
A. 2.77 µM

Q. Consider the compound "Cc1ccc(-c2c3c(nc4sc(C(N)=O)c(N)c24)CCCC3)o1" and give its measured AC35.
A. 42.6 µM

Q. I'd like to know its AC35. The compound in question is "CCCCNc1c(-c2cccc(-c3ccc(OC)cc3)c2)nc2ccc(C)cn12"
A. 2 µM

Q. Any idea what AC35 was measured for "Oc1ccccc1-c1cc(-c2ccc3c(c2)OCCO3)n[nH]1" ?
A. 15.2 µM

Q. Entry under review: "O=C(NOC(=O)c1ccccc1)c1ccccc1" . Reported AC35?
A. 20.9 µM
